Tested on: carbapenemase producing K. pneumoniae
Experiment: MIC by broth micro-dilution (CLSI), carbapenemase producing K. pneumoniae
Assay type: cell-based, Klebsiella pneumoniae
Settings: Klebsiella pneumoniae, ATCCBAA1705, KPC-2 K. pneumoniae ATCC BAA-1705; read-out: MIC
Give measured MIC for each item. Keep answers brief.
Numbers only, in µg/mL.

Recorded MIC, per entry:
{"columns": ["compound", "endpoint", "result.units", "reported.measurement"],
 "data": [
  ["C[C@@H](NC(=O)Cn1cnnn1)[C@H]1C(=O)N2C(C(=O)O)=C(S[C@@H]3CN[C@H](C(=O)N4C[C@@H](CO)[C@H](NC(=N)N)C4)C3)[C@H](C)[C@H]12 [Example 583]", "MIC", "µg/mL", 1],
  ["CNCC(=O)N[C@H](C)[C@H]1C(=O)N2C(C(=O)O)=C(S[C@@H]3CN[C@H](C(=O)N4C[C@@H](N)C[C@H]4C)C3)[C@H](C)[C@H]12 [Example 287]", "MIC", "µg/mL", 8]
]}

Continue with the next compound.
Recorded MIC of C[C@@H](NC(=O)Cn1cnnn1)[C@H]1C(=O)N2C(C(=O)O)=C(S[C@@H]3CN[C@H](C(=O)N4C[C@H]5C[C@H](N)C[C@@]5(CN)C4)C3)[C@H](C)[C@H]12 [Example 538] , please. 2
